Test system: 922993-354-T-J3-PDC complex spheroids, viability, % test/control;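 note: spheroids exposed to the agents for 7 days before readout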
Assay info: Anticancer human tumor 922993-354-T-J3-PDC patient-derived endometrial carcinoma cell line growth inhibition [CLK]
Recorded conditions: second compound 1 µM; first compound 1 µM; active compounds read low
Recorded endpoint: viability, T/C (%)
One number for each entry, in %.

CC(Nc1ccc2c(c1)OCCn1cc(N3C(=O)OCC3C(F)F)nc1-2)C(N)=O (stereo not given) + CNC(=O)c1ccc(Nc2nc(OC3CCCC3)c3c(-c4ccc5nc(C)oc5c4)c[nH]c3n2)c(OC)c1: 23.1
Nc1ccccc1NC(=O)c1ccc(CNC(=O)OCc2cccnc2)cc1 + CNC(=O)c1ccc(Nc2nc(OC3CCCC3)c3c(-c4ccc5nc(C)oc5c4)c[nH]c3n2)c(OC)c1: 34.4
O=c1[nH]cc(F)c(=O)[nH]1 + CN1CCN(c2cc(C(=O)Nc3cc4cc(-c5cnn(C)c5)ccc4cn3)ccn2)CC1: 0.78

Batch request: viability, T/C for each of the following compounds.
1. COC1C=CCC(C)C(C)S(=O)(=O)NC(=O)c2ccc3c(c2)N(CC2CCC21)CC1(CCCc2cc(Cl)ccc21)CO3 (stereo not given) + CN1CCN(c2cc(C(=O)Nc3cc4cc(-c5cnn(C)c5)ccc4cn3)ccn2)CC1
2. O=C(c1cc(Cc2n[nH]c(=O)c3ccccc23)ccc1F)N1CCN(C(=O)C2CC2)CC1 + CNC(=O)c1ccc(Nc2nc(OC3CCCC3)c3c(-c4ccc5nc(C)oc5c4)c[nH]c3n2)c(OC)c1

Ans:
1: 0.22; 2: 35.6
